- experiment summary: Volume of distribution at steady state in cynomolgus monkey at 1 mg/kg, iv
- Assay type: ADME, organism-based, Macaca fascicularis
- Parameters: dose 1 mg/kg, route intravenous
- test conditions: in vivo, read-out: Vdss
property label: Vd (L/kg)
# value in L/kg; strip the unit string

Q: What value of measured Vd is listed for Cc1cc(N2CCC(N(C)C(=O)CCS(=O)(=O)c3ccc4cc(Cl)ccc4c3)CC2)ccn1 ?
Result: 3.29

###

- experiment summary: Mean residence time in cynomolgus monkey at 1 mg/kg, iv
- Assay type: ADME, organism-based, Macaca fascicularis
- Set-up: dose 1 mg/kg, route intravenous
- test conditions: in vivo
property label: MRT
Quick note: number first, unit second.

Q: What value of measured MRT is listed for Cc1cc(N2CCC(N(C)C(=O)CCS(=O)(=O)c3ccc4cc(Cl)ccc4c3)CC2)ccn1 ?
Result: 4.54 h
